The origin of these recorded values is patent US20170296650A1.

Biological target: T1, hCMV gH + gL + UL128 + UL130 + UL131A (5-member complex; HEK293T co-transfectant) (hCMV, UniProt P12824 24-743; P16832 31-278; P16837 1-171; P16772 1-214)
T1 construct: whole, on cells; in the functional rows it stands for the complex on virions or transduced cells of the strain or isolate named in the readout; also called gH/gL/UL128-131A complex; pentameric complex
Assay: cell competition; competitor 9I6-biotin
property: Inhibition of binding (%)
Numeric only. Scale: %

Give a short answer stating reported Inhibition of binding (%) for 8C15 (antibody, V domains shown, human IgG; also called 8C15-biotin) VH: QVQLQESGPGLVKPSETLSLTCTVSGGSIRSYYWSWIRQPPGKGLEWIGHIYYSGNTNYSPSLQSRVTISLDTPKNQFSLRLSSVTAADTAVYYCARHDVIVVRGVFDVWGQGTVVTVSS VL: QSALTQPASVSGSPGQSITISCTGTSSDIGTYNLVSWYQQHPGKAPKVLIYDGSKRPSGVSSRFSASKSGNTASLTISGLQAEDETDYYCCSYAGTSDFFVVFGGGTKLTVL . 100

Give a short answer stating reported Inhibition of binding (%) for 7I13 (antibody, V domains shown, human IgG; also called 7113) VH: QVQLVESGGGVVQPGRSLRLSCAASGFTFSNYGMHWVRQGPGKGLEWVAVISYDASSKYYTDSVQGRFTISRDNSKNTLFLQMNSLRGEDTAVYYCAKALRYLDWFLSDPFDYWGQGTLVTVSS VL: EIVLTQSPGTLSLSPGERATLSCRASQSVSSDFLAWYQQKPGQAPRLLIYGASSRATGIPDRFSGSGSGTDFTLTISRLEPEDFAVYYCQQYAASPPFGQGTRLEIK . 0

Give a short answer stating reported Inhibition of binding (%) for 2C12 (antibody, V domains shown, human IgG; also called 2C12-biotin) VH: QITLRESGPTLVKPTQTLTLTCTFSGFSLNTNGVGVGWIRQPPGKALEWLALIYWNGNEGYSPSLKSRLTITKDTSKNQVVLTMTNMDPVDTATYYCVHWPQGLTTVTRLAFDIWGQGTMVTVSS VL: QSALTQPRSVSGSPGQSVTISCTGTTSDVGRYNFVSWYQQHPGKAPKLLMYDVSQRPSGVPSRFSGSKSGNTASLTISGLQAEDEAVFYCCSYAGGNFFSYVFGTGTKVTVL . 100

Give a short answer stating reported Inhibition of binding (%) for 9I6 (antibody, V domains shown, human IgG; also called 9I6-biotin; 916) VH: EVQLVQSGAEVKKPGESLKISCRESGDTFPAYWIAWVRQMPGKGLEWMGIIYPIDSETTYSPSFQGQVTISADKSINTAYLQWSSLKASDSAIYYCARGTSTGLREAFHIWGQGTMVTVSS VL: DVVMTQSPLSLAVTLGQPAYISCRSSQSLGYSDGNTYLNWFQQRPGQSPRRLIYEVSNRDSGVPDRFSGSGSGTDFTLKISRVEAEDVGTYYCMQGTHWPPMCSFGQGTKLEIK . 100

Give a short answer stating reported Inhibition of binding (%) for 8J16 (antibody, V domains shown, human IgG; also called 8J16-biotin) VH: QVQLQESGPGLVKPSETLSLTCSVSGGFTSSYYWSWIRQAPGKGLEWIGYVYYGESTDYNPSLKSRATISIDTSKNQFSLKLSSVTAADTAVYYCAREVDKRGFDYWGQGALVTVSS VL: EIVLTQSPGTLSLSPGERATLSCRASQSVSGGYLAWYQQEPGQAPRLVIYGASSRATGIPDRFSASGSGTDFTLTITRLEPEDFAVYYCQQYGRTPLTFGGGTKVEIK . 70

Give a short answer stating reported Inhibition of binding (%) for 7B13 (antibody, V domains shown, human IgG) VH: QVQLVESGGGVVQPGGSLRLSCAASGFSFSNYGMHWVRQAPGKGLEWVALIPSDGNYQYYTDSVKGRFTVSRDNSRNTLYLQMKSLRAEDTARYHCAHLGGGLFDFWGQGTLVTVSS VL: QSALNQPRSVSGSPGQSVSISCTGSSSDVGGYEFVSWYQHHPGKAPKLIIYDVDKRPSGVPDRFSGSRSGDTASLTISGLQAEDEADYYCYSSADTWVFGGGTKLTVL . 100
